# test_system: human ether-à-go-go-related gene (hERG) potassium channel (human, UniProt Q12809)
# Sequence (Q12809 whole entry, looked up): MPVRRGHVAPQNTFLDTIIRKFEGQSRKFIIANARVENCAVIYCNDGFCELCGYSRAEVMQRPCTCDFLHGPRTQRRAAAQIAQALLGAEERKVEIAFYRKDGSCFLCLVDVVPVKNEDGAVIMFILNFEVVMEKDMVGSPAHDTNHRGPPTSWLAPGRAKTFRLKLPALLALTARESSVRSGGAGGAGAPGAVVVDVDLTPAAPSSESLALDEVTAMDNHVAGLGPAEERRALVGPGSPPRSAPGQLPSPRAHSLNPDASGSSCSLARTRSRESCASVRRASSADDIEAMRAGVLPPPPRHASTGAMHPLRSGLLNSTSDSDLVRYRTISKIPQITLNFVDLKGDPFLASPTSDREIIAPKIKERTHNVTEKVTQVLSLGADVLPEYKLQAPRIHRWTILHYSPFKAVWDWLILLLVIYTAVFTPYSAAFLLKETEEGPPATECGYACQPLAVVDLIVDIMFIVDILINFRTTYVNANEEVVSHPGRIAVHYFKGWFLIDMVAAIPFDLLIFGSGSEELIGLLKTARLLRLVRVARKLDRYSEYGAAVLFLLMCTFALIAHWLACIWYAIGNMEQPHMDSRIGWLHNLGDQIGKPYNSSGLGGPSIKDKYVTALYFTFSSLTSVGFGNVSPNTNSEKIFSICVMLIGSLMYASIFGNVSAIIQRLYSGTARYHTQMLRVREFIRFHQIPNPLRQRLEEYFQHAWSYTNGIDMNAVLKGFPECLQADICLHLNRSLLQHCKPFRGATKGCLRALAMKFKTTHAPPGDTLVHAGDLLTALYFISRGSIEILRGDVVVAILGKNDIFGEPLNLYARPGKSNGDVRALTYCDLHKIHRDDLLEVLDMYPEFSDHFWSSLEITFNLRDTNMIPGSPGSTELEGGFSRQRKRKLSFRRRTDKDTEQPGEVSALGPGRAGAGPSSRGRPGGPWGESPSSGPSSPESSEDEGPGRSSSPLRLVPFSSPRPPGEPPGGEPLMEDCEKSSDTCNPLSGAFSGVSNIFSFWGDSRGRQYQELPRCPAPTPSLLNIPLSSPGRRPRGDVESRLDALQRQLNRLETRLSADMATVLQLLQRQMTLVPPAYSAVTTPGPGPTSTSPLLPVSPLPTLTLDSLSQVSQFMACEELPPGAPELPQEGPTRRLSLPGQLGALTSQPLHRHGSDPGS
# test_description: primary screen, population patch clamp on CHO cells stably expressing hERG; higher = less effect of the substance
# Excerpt: Briefly, Chinese hamster ovary (CHO) cells stably expressing the hERG channel were dislodged from tissue culture flasks and dispensed into PPC plates. […] Small molecule effects on hERG current density were quantified by […].
Hit rate of the full screen: of about 310,000 compounds, about 2,200 (0.71%) showed an effect of 50% or more. Effects have a minus sign here. This excerpt belongs to a sample that is enriched for strong results.
The molecules listed here are annotated with their hERG current change (%, negative = inhibition) at 1uM.
observation_type: hERG current change (%, negative = inhibition) at 1uM (%)

{"columns": ["molecule", "endpoint_unit", "recorded_result"],
 "data": [
  ["O=C(CN1C(=O)C2CCCCN2C(=O)c2ccccc21)N1CCCc2ccccc21 (centres unmarked)", "%", 15.1],
  ["COc1ccc(-c2nc(CN3CCN(Cc4ccccc4)CC3)c(C)o2)cc1", "%", 4.17],
  ["Cc1oc(-c2cccc(F)c2)nc1CN1CCCCC1CCn1cccn1 (centres unmarked)", "%", -40.1],
  ["Fc1cccc(Cc2noc(CN3CCCCC3CCc3ccccn3)n2)c1 (centres unmarked)", "%", 13.2],
  ["c1ccc2oc(-c3[nH]ncc3CN3CCSCC3)cc2c1", "%", 9.72]
]}

* * *

Below is a list of entries, each paired with its recorded hERG current change (%, negative = inhibition) at 1uM value.
# test_system: human ether-à-go-go-related gene (hERG) potassium channel (human)
# test_description: primary screen, population patch clamp on CHO cells stably expressing hERG; higher = less effect of the substance
Hit rate of the full screen: of about 310,000 compounds, about 2,200 (0.71%) showed an effect of 50% or more. The effect is printed as a negative number. The entries come from a sample that favours strong results as a whole.
observation_type: hERG current change (%, negative = inhibition) at 1uM (%)

{"columns": ["compound", "recorded_result"],
 "data": [
  ["Cl.Oc1ccc(CCNc2c3ccccc3nc3ccccc23)cc1O", -3.93],
  ["O=C(c1ccc(-c2cccc(C(F)(F)F)c2)o1)N1CCCCCCC1", 5.25],
  ["O=[N+]([O-])c1ccc(CN2CCOCCOCCOCC2)cc1", -20.5],
  ["CCOC(=O)C(=O)NC(C)CCc1ccccc1 (stereo not drawn)", 9.43],
  ["COc1ccc(CCNc2nc(-c3cccnc3)nc3ccccc23)cc1OC", 9.94],
  ["CC(C)Oc1ccc(CNC(=O)C2CCN(C(=O)N3CCOc4ccccc43)CC2)cc1", 6.25],
  ["COc1ccc(C)cc1Nc1nc(-c2c(C)[nH]c3ccccc23)cs1", 4.55],
  ["Cc1ccc2nc3c(cc(C(=O)NCc4ccco4)c(=N)n3Cc3ccco3)c(=O)n2c1", -86.5],
  ["Cc1ccc(S(=O)(=O)c2cc3c(=O)n4ccccc4nc3n(Cc3ccco3)c2=N)cc1", -0.218],
  ["O=C(O)c1ccc(C[n+]2c(-c3ccccc3)csc2Nc2ccccc2)cc1.[Br-]", 8.98],
  ["CCNC(=S)N1CCc2ccccc2C1", 9.59],
  ["COc1ccc(CCNc2c3ccccc3nc3ccccc23)cc1OC.Cl", -59.8],
  ["COCCn1c(=N)c(S(=O)(=O)c2ccc(Br)cc2)cc2c(=O)n3ccccc3nc21", 9.15],
  ["O=[N+]([O-])c1ccc(CN2CCCCCC2)cc1", -0.361],
  ["CCOC(=O)c1cnc2ccc(OC)cc2c1NCCN1CCOCC1", -13.3],
  ["COc1ccc(CN2CCOCCOCCOCC2)cc1", -21.8],
  ["CCOC(=O)c1cnc2ccc(OC)cc2c1NCCc1ccc(OC)c(OC)c1", -69.5],
  ["CCOC(=O)c1cnc2ccccc2c1NCCO", -15.2],
  ["Cc1cc2ccccc2c(=O)n1CC(=O)NCc1ccco1", 18.5],
  ["O=C(CNCCCO)Nc1cc(C(F)(F)F)cc(NC(=O)CNCCCO)c1Cl", 9.02],
  ["CC(C)c1ccccc1OS(N)(=O)=O", 4.02]
]}
